- test-target: recombinant soluble homotrimeric HA of A/Japan/305/57 (H2N2) (Influenza A virus A/Japan/305/1957(H2N2))
- assay-notes: trimeric HA microarray, transfection supernatant set 5
- assay-conditions: remark: other sources report otherwise
readout-kind: Trimeric HA Binding: RLU (RLU)
One number for each entry, in RLU.

Below, 2 binders whose answers are already recorded.
TCN-540 (5060_F05) (antibody, V domains shown) VH: QVQLVQSGGGVVQPGRSLRLSCAASGFTFSSYAMHWVRQAPGKGLEWVAIISYDGNDQYYTDSVKGRFTISRDSSKVYLQMHRLRPEDTAVYYCAKEFETSGYFHGSFDYWGQGILVTVSS VL: QSALTQPASVSGSPGQSITISCTGTSSDVGGYNYVSWYQQHPGKAPKLLIYEVTNWPSGVSNRFSGSKSGNTASLTISGLQAEDEADYYCSSYAGSSTWVFGGGTRVTVL ... 47900
TCN-544 (5082_A19) (antibody, V domains shown) VH: QVQLQESGPGLVKPSETLSLTCTVSRGSIGHYFWSWIRQPPGKGLEWIGYISYSGSTKYNPSLRSRVTISVDTSKNQFSLNLNSVTATDTALYYCAREDYDILTGAGPGMEVWGQGTTVTVSS VL: QSMLTQPPSASGTPGQRVTISCSGSSSNIGSNTVNWFKHLPGTAPKLLIYRNDLRPSGVPDRFSGSKSGTSASLAISGLQSEDEADYYCATWDDSLNGFYVFGTGTKVTVL ... 1000

Here is another binder to look at.
## Input Trimeric HA Binding: RLU for TCN-537 (3194_D21) (antibody, V domains shown) VH: QVQLQQWGSGLLKPSETLSLTCAVYGGSFRDDYWTWIRQPPGKGLEWIGEINHSGRTNYNPSLKSRVTISVDTSLKQFSLKVISVTAADTAVYYCARGTSHVSRYFDWLPPTNWFDPWGQGTQVTVSS VL: DIVLTQSPGTLSLSPGERATLSCRASQSVSSSYLAWYQQKPGQAPRLVMYGAATRATGIPDRFSGSGSGPDFTLTISRLEPEDFAMYYCQQYGNSPITFGQGTRLEIK ?
## Output 16200

Recorded values, source patent US20150086555A1.
